Recorded values, source ChEMBL document CHEMBL3390836.

# Tested on: M14
# protocol text: Cytotoxicity against human M14 cells assessed as cell growth at 10 uM after 48 hrs by SRB assay relative to control
# Format: functional
# measurement setup: M14, 48 h, read-out: Activity
property name: growth at 10 µM (%)
Respond numerically; units are % and should not be typed.

>  <molecule>
CC(C)=CCC[C@H](C)c1ccc(C)c2c1OCN(CCO)C2

>  <units of measure>
%

>  <growth at 10 µM>
90.9

$$$$
>  <molecule>
CC(C)=CCC[C@H](C)c1ccc(C)c2c1OCN(CCCCC(=O)O)C2

>  <units of measure>
%

>  <growth at 10 µM>
92.5

$$$$

Next up:
Briefly, growth at 10 µM measured for COc1ccc(CCNCc2c(C)ccc([C@@H](C)CCC=C(C)C)c2O)cc1OC : 91

---

# System: NCI-H322M
# protocol text: Cytotoxicity against human NCI-H322M cells assessed as cell growth at 10 uM after 48 hrs by SRB assay relative to control
# Type: functional
# measurement setup: read-out: Activity
Consider the following molecules and their measured growth at 10 µM readings.
The figure you give is taken to be in %; do not add the unit.

>  <molecule>
CC(C)=CCC[C@H](C)c1ccc(C)c(CO)c1O

>  <target of assay>
NCI-H322M

>  <property name>
growth at 10 µM

>  <assay value>
109

$$$$

Entry CC(C)=CCC[C@H](C)c1ccc(C)c2c1OCN(CCCCCO)C2 , tested on NCI-H322M, has a reported growth at 10 µM of 102

Let me check: CC(C)=CCC[C@H](C)c1ccc(C)c(CNCCO)c1O , system NCI-H322M, measured growth at 10 µM is 100

---

# Tested on: SN12C
# protocol text: Cytotoxicity against human SN12C cells assessed as cell growth at 10 uM after 48 hrs by SRB assay relative to control
# Assay type: functional
# measurement setup: read-out: Activity
// values below are reported growth at 10 µM
API: value field is a number in %; no unit string.

Example molecules with recorded growth at 10 µM:
>  <molecule>
CC(C)=CCC[C@H](C)c1ccc(C)cc1O

>  <units of measure>
%

>  <growth at 10 µM>
105

$$$$
>  <molecule>
COc1ccc(CCNCc2c(C)ccc([C@@H](C)CCC=C(C)C)c2O)cc1OC

>  <units of measure>
%

>  <growth at 10 µM>
87.1

$$$$
>  <molecule>
CC(C)=CCC[C@H](C)c1ccc(C)c(CNCCCCC(=O)O)c1O

>  <units of measure>
%

>  <growth at 10 µM>
102

$$$$

Entry CC(C)=CCC[C@H](C)c1ccc(C)c(CNCCO)c1O ; growth at 10 µM = 91.5

growth at 10 µM recorded for this molecule, CC(C)=CCC[C@H](C)c1ccc(C)c2c1OCN(CC1CCNCC1)C2 , is 47

---

# Test system: MCF7
# protocol text: Cytotoxicity against human MCF7 cells assessed as cell growth at 10 uM after 48 hrs by SRB assay relative to control
# Assay type: functional
# measurement setup: MCF7, 48 h, read-out: Activity
Lab note: compare growth at 10 µM with 90%, writing class 1 if less and class 0 if equal or more.

Example cases with answers are listed next.
>  <molecule>
CC(C)=CCC[C@H](C)c1ccc(C)cc1O

>  <answer label>
class 0

$$$$
>  <molecule>
CC(C)=CCC[C@H](C)c1ccc(C)c(CNCC2CCNCC2)c1O

>  <answer label>
class 1

$$$$
>  <molecule>
COc1ccc(CCNCc2c(C)ccc([C@@H](C)CCC=C(C)C)c2O)cc1OC

>  <answer label>
class 1

$$$$

Alright, here's another compound for you.
### Prompt Quick check: growth at 10 µM of CC(C)=CCC[C@H](C)c1ccc(C)c(CNCCCCCO)c1O under 90%?
### Response class 1
